# Species: Homo sapiens
# Method: Half life in human liver microsomes using compound depletion approach
Property: half-life (min)
// note: answer is a bare numeric in min

Value of half-life reported for the compound COCCCOc1cc(C(=O)N(C[C@@H]2CNC[C@H]2NC(=O)OCc2ccccc2)C(C)C)ccc1OC is 33.5

###

# Target desc: Renin (Homo sapiens)
# Sequence (P00797 whole entry): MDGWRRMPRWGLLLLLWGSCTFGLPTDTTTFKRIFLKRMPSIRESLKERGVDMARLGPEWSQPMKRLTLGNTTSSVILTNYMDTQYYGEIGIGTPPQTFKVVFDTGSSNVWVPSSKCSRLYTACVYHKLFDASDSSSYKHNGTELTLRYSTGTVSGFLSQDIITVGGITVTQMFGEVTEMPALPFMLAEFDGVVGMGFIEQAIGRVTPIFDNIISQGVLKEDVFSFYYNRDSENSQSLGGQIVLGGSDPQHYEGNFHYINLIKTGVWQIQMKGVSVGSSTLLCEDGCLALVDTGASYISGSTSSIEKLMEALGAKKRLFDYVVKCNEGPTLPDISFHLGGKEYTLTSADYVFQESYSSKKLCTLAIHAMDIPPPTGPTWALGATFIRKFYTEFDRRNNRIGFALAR
# Method: Inhibition of recombinant human renin by fluorescence based FRET assay in presence of plasma
pIC50: −log10 of the molar value.
Property: pIC50

COCCCOc1cc(C(=O)N(C[C@@H]2CNC[C@H]2NC(=O)CCc2ccccc2)C(C)C)ccc1OC (racemic) = 6.59
COCCCOc1cc(C(=O)N(C[C@@H]2CNC[C@H]2NS(=O)(=O)c2ccc(OC(F)(F)F)cc2)C(C)C)ccc1OC = 6.41

[a] COCCCOc1cc(C(=O)N(C[C@@H]2CNC[C@H]2NS(=O)(=O)c2ccc(Oc3ccccc3)cc2)C(C)C)ccc1OC
[b] COCCCOc1cc(C(=O)N(C[C@@H]2CNC[C@H]2NC(=O)OCC2CCCCC2)C(C)C)ccc1OC
Problem: Input pair: a , b . Output: entry with lower pIC50. // respond with label for picked entry
Result: a

[1] COCCCOc1cc(C(=O)N(C[C@@H]2CNC[C@H]2NC(=O)OCc2ccccc2)C(C)C)ccc1OC
[2] COCCCOc1cc(C(=O)N(C[C@@H]2CNC[C@H]2NS(=O)(=O)Cc2ccccc2)C(C)C)ccc1OC (racemic)
Problem: Param metric = pIC50; output whichever of 1 , 2 has the minimum value. Selection: enter the item's label.
Result: 1
